Taken from paper PMC9264368.

# experimental.target: Notum (Homo sapiens, UniProt Q6P988, C330S)
# Sequence (Q6P988 81-451 C330S): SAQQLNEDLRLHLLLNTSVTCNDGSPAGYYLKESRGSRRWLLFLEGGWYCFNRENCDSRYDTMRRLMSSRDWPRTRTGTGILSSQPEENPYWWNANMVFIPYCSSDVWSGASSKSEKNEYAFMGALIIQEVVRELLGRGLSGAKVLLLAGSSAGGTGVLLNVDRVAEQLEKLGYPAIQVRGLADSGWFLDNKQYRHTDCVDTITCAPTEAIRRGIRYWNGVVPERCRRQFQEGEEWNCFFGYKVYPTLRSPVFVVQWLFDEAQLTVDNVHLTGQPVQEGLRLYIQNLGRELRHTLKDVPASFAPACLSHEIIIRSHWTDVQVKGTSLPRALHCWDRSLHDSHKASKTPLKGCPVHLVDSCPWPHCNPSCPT
# assay.notes: biochemical
# assay.conditions: Notum IC50, OPTS substrate; 10-point curves 30 nM to 1 mM; mean ± s.d. of N = 2–4 unless stated; Table 1 and figures
Quick list: IC50 per entry.
readout.type: IC50

>>> meas_value("O=C(O)COCc1ccccc1")
"> 1000 µM"
>>> meas_value("O=C1CN(C(=O)COc2ccccc2)CCN1")
"> 100 µM"
>>> meas_value("O=C(O)Cc1ccc(-c2ccccc2)cc1 [compound 14, 2-[(1,1’-Biphenyl)-4-yl]acetic acid]")
"58 µM"
>>> meas_value("N#CCN1CCN(c2cccc(Cl)c2)CC1")
"600 µM"
>>> meas_value("O=C(NCCc1ccncc1)NC1CCCCC1")
"> 1000 µM"

====

# experimental.target: Notum (Homo sapiens, UniProt Q6P988, C330S)
# assay.conditions: LLE = pIC50 – clogP
Recorded LLE (lipophilic ligand efficiency) by entry
readout.type: LLE (lipophilic ligand efficiency)

>>> meas_value("CCn1c(NC(C)=O)nc2ccccc21 [compound 57]")
1.5
>>> meas_value("COC(=O)COc1ccc(C#N)cc1 [compound 44]")
2.0
>>> meas_value("Cn1nc(O)cc1Nc1ccccc1 [compound 49]")
1.8
>>> meas_value("NNC(=O)c1ccccc1OCc1ccccc1 [compound 34]")
1.4
>>> meas_value("Cc1nc2ccccn2c1C(=O)NCC(C)C [compound 10]")
0.6

====

# experimental.target: Notum (Homo sapiens, UniProt Q6P988, C330S)
# assay.conditions: supplementary CSV
Rule for this label: Criterion met means LE is less than 0.3; Criterion not met means LE is at least 0.3.

>>> class_assignment("Cc1ccc(CN(C)Cc2ccccc2)o1 [compound 21]")
"Criterion met"
>>> class_assignment("COC(=O)c1ccccc1Oc1ccc(N)cc1 [compound 6, Methyl 2-(4-aminophenoxy)benzoate]")
"Criterion met"
>>> class_assignment("CC(=O)Nc1cccc2nonc12 [compound 2]")
"Criterion not met"
>>> class_assignment("COc1cc(-c2ccccc2)nc(N)n1 [compound 46]")
"Criterion not met"
>>> class_assignment("O=C(O)Cc1ccc(-c2ccccc2)cc1 [compound 14, 2-[(1,1’-Biphenyl)-4-yl]acetic acid]")
"Criterion not met"
>>> class_assignment("c1ccc(CNCc2ccc3c(c2)OCO3)nc1 [compound 28]")
"Criterion not met"
>>> class_assignment("Nc1ccc(NCc2cccnc2)c(C(=O)O)c1 [compound 18]")
"Criterion not met"
>>> class_assignment("Nc1ccccc1Nc1ccccn1 [compound 33]")
"Criterion not met"
>>> class_assignment("COCC(=O)Nc1nc(-c2ccccc2)cs1 [compound 35]")
"Criterion not met"
>>> class_assignment("COc1ccc(CNC(=O)[C@@H]2CCCO2)cc1 [compound 43]")
"Criterion not met"
>>> class_assignment("Cc1ccccc1CNc1nnnn1C [compound 54]")
"Criterion not met"
>>> class_assignment("CC(=O)Nc1ccc(Nc2ccccc2)cc1 [compound 25, N-(4-Anilinophenyl)acetamide]")
"Criterion not met"
>>> class_assignment("COCC(=O)NCc1ccccc1 [compound 41]")
"Criterion not met"
>>> class_assignment("OCc1ccc(-n2cnc3ccccc32)cc1 [compound 4]")
"Criterion not met"
>>> class_assignment("Oc1c(F)cc(F)cc1-c1cc[nH]n1 [compound 16]")
"Criterion not met"
>>> class_assignment("CCn1c(NC(C)=O)nc2ccccc21 [compound 57]")
"Criterion not met"
>>> class_assignment("CCc1noc(C)c1C(=O)Nc1cc(C)on1 [compound 53]")
"Criterion met"
>>> class_assignment("CC1CCN(Cc2c[nH]c3ccccc23)CC1 [compound 38]")
"Criterion not met"
